Values from paper PMC10397247

Test System: T1, 4H3844-AA
T1 chain: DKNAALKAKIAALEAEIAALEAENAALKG
Experiment Summary: two-hybrid library CCmax;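 further: natural log of median RNA to DNA barcode read ratio; higher means stronger binding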
Assay Setup: mean of both orientations
Readout Label: interaction score

1) DKIAALKAENAALKAEIAALEAEIAALKG [4H2754-AA]: -1.53
2) DKIAALKAKIAALEAENAALEAKIAALEG [4H2837-AA]: -1.21
3) DKIAALKAEIAALEAKNAALKAEIAALEG [4H2617-AA]: -1.39
